Parameter C15orf41 expression, RNA-seq result: see the listing below.
- Tested on: hepatocytes
- Protocol details: RNA-seq of hepatocytes treated with Phase III failure compounds
- Condition: gene C15orf41; hepatocytes
Answer with the value's number alone.

Worked set:
Compound: C=CC(=O)Nc1cccc(Nc2nc(Nc3ccc(N4CCN(C(C)=O)CC4)cc3OC)ncc2C(F)(F)F)c1 [CO-1686 (Rociletinib), Rociletinib]
Measurement: 0.03
//
Compound: COc1cccc2c1C(=O)c1c(O)c3c(c(O)c1C2=O)C[C@@](O)(/C(CO)=N/NC(=O)CCCCCN1C(=O)C=CC1=O)C[C@@H]3O[C@H]1C[C@H](N)[C@H](O)[C@H](C)O1
Measurement: −1.28
//
Compound: CC(C)[C@H](O)C(=O)N[C@@H](C)C(=O)N[C@@H]1C(=O)N(C)CCc2ccccc21
Measurement: −0.28
//
Compound: CN(C)[C@@H]1C(O)=C(C(N)=O)C(=O)[C@@]2(O)C(O)=C3C(=O)c4c(O)c(NC(=O)CN5CCCC5)cc(F)c4C[C@H]3C[C@@H]12 [TP-434 (Eravacycline), Eravacycline]
Measurement: 0.12

Please turn your attention to the following entry.
Endpoint output: C15orf41 expression, RNA-seq result of "COc1nc(C)cnc1NS(=O)(=O)c1cccnc1-c1ccc(-c2nnco2)cc1" . Value?
0.50

* * *

- System: hepatocytes
- Protocol details: RNA-seq of hepatocytes treated with Phase III failure compounds
- Condition: RNA-seq, Phase III failure compounds, hepatocytes; significance: FPKM≥0.5, log 2(fold-change)≥1, q-value≥0.05 (so in the source)
Parameter Number (#) of genes having significantly changed expression: see the listing below.
Answer with the value's number alone.

Worked set:
Compound: C1=C/COCc2cc(ccc2OCCN2CCCC2)Nc2nccc(n2)-c2cccc(c2)COC/1
Measurement: 4114
//
Compound: CO[C@H]1C[C@@H]2CC[C@@H](C)[C@@](O)(O2)C(=O)C(=O)N2CCCC[C@H]2C(=O)O[C@H]([C@H](C)C[C@@H]2CC[C@@H](OC(=O)C(C)(CO)CO)[C@H](OC)C2)CC(=O)[C@H](C)/C=C(\C)[C@@H](O)[C@@H](OC)C(=O)[C@H](C)C[C@H](C)/C=C/C=C/C=C/1C
Measurement: 34
//
Compound: COCCOc1ccc(N2CCN(CCn3ncc4c3nc(N)n3nc(-c5ccco5)nc43)CC2)cc1
Measurement: 317

Please turn your attention to the following entry.
Endpoint output: Number (#) of genes having significantly changed expression of C=CC(=O)Nc1cccc(Nc2nc(Nc3ccc(N4CCN(C(C)=O)CC4)cc3OC)ncc2C(F)(F)F)c1 [CO-1686 (Rociletinib), Rociletinib] . Value?
391

* * *

- Tested on: hepatocytes
- Protocol details: RNA-seq of hepatocytes treated with Phase III failure compounds
Recorded endpoint: RNA-seq results: CYP2C19 expression

Smiles structure: COc1cc2c(Oc3ccc4[nH]c(C)cc4c3F)ncnc2cc1OCCCN1CCCC1
Measurement: −1

Smiles structure: Cn1cc(C2=C(c3cn(C4CCN(Cc5ccccn5)CC4)c4ccccc34)C(=O)NC2=O)c2ccccc21
Measurement: 1.62

Smiles structure: NC(=O)c1ccc(I)c([N+](=O)[O-])c1
Measurement: 0.24

Endpoint output: RNA-seq results: CYP2C19 expression of "C=CCNC1=C2C[C@@H](C)C[C@H](OC)[C@H](O)[C@@H](C)/C=C(\C)[C@H](OC(N)=O)[C@@H](OC)/C=C\C=C(/C)C(=O)NC(=CC1=O)C2=O" . Value?
−1.4

* * *

- Tested on: hepatocytes
- Protocol details: RNA-seq of hepatocytes treated with Phase III failure compounds
- Condition: gene CPT2; hepatocytes
- Method: RNA-seq was performed to determine the effects of the compounds on hepatocytes. Significance was determined by the criteria of FPKM≥0.5, a log 2(fold-change)≥1, and a […].
Parameter RNA-seq results: CPT2 expression: see the listing below.
Answer with the value's number alone.

Endpoint output: RNA-seq results: CPT2 expression of CCOC(=O)N1c2ccc(C(F)(F)F)cc2[C@@H](N(Cc2cc(C(F)(F)F)cc(C(F)(F)F)c2)C(=O)OC)C[C@H]1CC [Torcetrapib] . Value?
−0.1

Could you do the same for O=P(O)(NCCCl)NCCCl [Palifosfamide] , please?
0.33

Could you do the same for Cn1cnc2c(F)c(Nc3ccc(Br)cc3Cl)c(C(=O)NOCCO)cc21 [Selumetinib] , please?
−0.2

Could you do the same for NC(=O)c1ccc(I)c([N+](=O)[O-])c1 [BSI-201] , please?
0.10

Could you do the same for Cn1cc(C2=C(c3cn(C4CCN(Cc5ccccn5)CC4)c4ccccc34)C(=O)NC2=O)c2ccccc21 [Enzastaurin] , please?
−0.15

* * *

Parameter RNA-seq results: SC5D: see the listing below.
- System: hepatocytes
- Protocol details: RNA-seq of hepatocytes treated with Phase III failure compounds
- Condition: gene SC5D; hepatocytes
Answer with the value's number alone.

Worked set:
Smiles structure: COc1cc(Nc2ncc(F)c(Nc3ccc4c(n3)N(COP(=O)(O)O)C(=O)C(C)(C)O4)n2)cc(OC)c1OC
Measurement: 0.22
//
Smiles structure: NC(=O)c1ccc(I)c([N+](=O)[O-])c1
Measurement: −0.29
//
Smiles structure: CCN(CC)CCN(Cc1ccc(-c2ccc(C(F)(F)F)cc2)cc1)C(=O)Cn1c(SCc2ccc(F)cc2)nc(=O)c2c1CCC2
Measurement: 0.37

Please turn your attention to the following entry.
Endpoint output: RNA-seq results: SC5D of "COc1cc2c(Oc3ccc4[nH]c(C)cc4c3F)ncnc2cc1OCCCN1CCCC1" . Value?
0.51

* * *

Let's go through some Log2 fold changes in gene expression: CYP3A4 measurements on primary human hepatocytes together.
Answer with the value's number alone.

Compound: C#C[C@]1(O)CC[C@H]2[C@@H]3CCC4=Cc5oncc5C[C@]4(C)[C@H]3CC[C@@]21C
Assayed system: primary human hepatocytes
Measurement: 0.11
//
Compound: CC(C)N(CCC(C(N)=O)(c1ccccc1)c1ccccn1)C(C)C (stereo not drawn) [MT-189, Disopyramide]
Assayed system: primary human hepatocytes
Measurement: 0.03

Please turn your attention to the following entry.
Endpoint output: Log2 fold changes in gene expression: CYP3A4 of "COc1ccc(Cc2nccc3cc(OC)c(OC)cc23)cc1OC" . Value?
0.06
